Provide the recorded Kd for the entries that follow.
# measurement_target: T1, Human CD27 ECD, monomeric soluble (construct limits not stated) (human, UniProt P26842 20-191)
# T1 construct: extracellular domain; target of the Biacore assays; also called monomeric soluble CD27; CD27-His
# T1 sequence (P26842 20-191): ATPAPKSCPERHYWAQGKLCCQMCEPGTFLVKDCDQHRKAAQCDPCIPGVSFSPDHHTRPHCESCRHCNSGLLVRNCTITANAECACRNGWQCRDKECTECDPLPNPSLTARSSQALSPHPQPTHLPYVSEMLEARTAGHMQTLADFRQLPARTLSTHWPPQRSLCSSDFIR
# assay_procedure: Biacore SPR, purified mAb
One number for each entry, in nM.

Worked cases, Kd given:
binder: M709 (antibody, V domains shown, also called single-gene DNA ID 709) VH: EVQLVQSGAEVKKPGESLKISCKGSGYAFSSSWMNWVRQMPGKGLEWMGRIYAGDADTAYSPSFQGQVTISADKSISTAYLQWSSLKASDTAMYYCARSDYYGDYGFAYWGQGTLVTVSS VL: DIVMTQSPDSLAVSLGERATINCKASQSVDYAGESFMNWYQQKPGQPPKLLIYAASNLESGVPDRFSGSGSGTDFTLTISSLQAEDVAVYYCQQSNEDPYTFGQGTKLEIK
Kd, nM: 0.026

binder: M710 (antibody, V domains shown, also called single-gene DNA ID 710) VH: EVQLVQSGAEVKKPGESLKISCKGSGYAFSSSWMNWVRQMPGKGLEWMGRIYAGDADTNYAPSFQGQVTISADKSISTAYLQWSSLKASDTAMYYCARSDYYGDYGFAYWGQGTLVTVSS VL: DIVMTQSPDSLAVSLGERATINCKASQSVDYAGESFMNWYQQKPGQPPKLLIYAASNLESGVPDRFSGSGSGTDFTLTISSLQAEDVAVYYCQQSNEDPYTFGQGTKLEIK
Kd, nM: 0.019

binder: M713 (antibody, V domains shown, also called single-gene DNA ID 713) VH: QVQLVQSGAEVKKPGASVKVSCKASGYAFSSSWMNWVRQAPGQGLEWMGRIYSGDADTNYAQKFKGRVTMTRDTSTSTVYMELSSLRSEDTAVYYCARSDYYGDYGFAYWGQGTLVTVSS VL: DIQMTQSPSSLSASVGDRVTITCKASQSVDYAGESFMNWYQQKPGKAPKLLIYAASNLESGVPSRFSGSGSGTDFTLTISSLQPEDFATYYCQQSNEDPYTFGQGTKVEIK
Kd, nM: 0.056

--- query ---
get_value(item= M711 (antibody, V domains shown, also called single-gene DNA ID 711) VH: EVQLVQSGAEVKKPGESLKISCKGSGYAFSSSWMNWVRQMPGKGLEWMGRIYSGDADTNYNQKFKGQVTISADKSISTAYLQWSSLKASDTAMYYCARSDYYGDYGFAYWGQGTLVTVSS VL: DIQMTQSPSSLSASVGDRVTITCKASQSVDYAGESFMNWYQQKPGKAPKLLIYAASNLESGVPSRFSGSGSGTDFTLTISSLQPEDFATYYCQQSNEDPYTFGQGTKVEIK , readout=Kd) returns 0.03

Provenance of the data: patent US20130243795A1
